Target: T1, recombinant human IL-23R/Fc chimera (human, UniProt Q5VWK5 24-353)
T1 construct: range 24-353; bought (R&D Systems Cat. No. 1400-IR-050); also called rhIL23R-Fc; IL-23R/Fc fusion protein; not shown: human IgG1 Fc, residues 100-330
T1 sequence (looked up): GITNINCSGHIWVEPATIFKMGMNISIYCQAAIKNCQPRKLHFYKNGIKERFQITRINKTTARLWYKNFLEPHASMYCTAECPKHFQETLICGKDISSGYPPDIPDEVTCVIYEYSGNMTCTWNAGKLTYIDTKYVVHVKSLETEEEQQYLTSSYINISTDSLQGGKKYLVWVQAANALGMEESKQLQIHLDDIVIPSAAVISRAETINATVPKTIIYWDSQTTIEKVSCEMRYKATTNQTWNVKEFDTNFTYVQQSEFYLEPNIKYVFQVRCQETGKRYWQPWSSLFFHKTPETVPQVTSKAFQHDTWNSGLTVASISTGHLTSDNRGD
Test: cell-free competitive ELISA against IL-23 on coated IL-23R-Fc
measured-metric: IC50

Sure, the documented IC50 for AKMTWVDYWLKNCA (cyclic: head-to-tail amide bond (alanine to alanine), cyclised form of linear peptide no; also called cyclic polypeptide no; 2HT AA (Head to Tail: Alanine to Alanine)) [cyclic peptide no. 2HT AA] is 8.1 nM
